Target: UniProt:P08151
Sequence (whole entry): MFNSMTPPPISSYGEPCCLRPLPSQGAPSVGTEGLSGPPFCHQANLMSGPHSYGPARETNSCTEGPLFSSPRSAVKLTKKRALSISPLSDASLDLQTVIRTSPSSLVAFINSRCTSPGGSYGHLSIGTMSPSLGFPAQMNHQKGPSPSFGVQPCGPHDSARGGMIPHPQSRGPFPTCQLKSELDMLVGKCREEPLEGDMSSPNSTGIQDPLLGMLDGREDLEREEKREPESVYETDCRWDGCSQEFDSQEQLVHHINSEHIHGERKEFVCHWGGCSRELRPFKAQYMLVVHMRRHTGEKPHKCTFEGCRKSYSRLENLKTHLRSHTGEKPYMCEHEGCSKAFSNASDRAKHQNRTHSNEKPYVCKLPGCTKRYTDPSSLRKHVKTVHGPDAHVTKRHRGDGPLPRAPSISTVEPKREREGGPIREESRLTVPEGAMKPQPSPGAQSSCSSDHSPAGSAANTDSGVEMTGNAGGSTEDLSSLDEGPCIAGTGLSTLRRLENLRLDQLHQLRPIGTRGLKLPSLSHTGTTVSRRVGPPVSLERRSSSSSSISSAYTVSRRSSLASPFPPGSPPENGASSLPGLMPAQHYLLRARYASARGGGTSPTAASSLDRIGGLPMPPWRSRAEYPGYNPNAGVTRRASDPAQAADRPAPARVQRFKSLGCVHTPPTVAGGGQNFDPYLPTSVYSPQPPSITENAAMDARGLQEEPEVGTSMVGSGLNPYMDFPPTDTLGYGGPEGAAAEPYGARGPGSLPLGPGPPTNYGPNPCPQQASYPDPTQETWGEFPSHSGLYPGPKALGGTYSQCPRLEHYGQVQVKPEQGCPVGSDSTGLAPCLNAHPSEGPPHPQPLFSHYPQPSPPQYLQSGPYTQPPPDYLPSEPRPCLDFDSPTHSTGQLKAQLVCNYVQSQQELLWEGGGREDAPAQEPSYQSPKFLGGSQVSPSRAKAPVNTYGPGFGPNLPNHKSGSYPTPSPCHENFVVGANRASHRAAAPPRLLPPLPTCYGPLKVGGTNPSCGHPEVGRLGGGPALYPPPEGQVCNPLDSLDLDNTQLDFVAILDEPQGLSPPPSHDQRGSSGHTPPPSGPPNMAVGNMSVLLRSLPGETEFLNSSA
Assay: Inhibition of Shh-N-induced Gli1 (unknown origin) expressed in mouse Shh Light2 cells assessed as Gli1-mediated mediated transcription at 50 uM incubated for 30 hrs by firefly luciferase assay
Assay type: cell-based
The source made the active and inactive calls. No cut-off for these calls is given here.
measurement_name: inhibition

COC(=O)C1CCCNN1 (centres undefined)
inactive
O=C(O)C1CCCCNN1 (centres undefined)
inactive
COC(=O)C1CCCCNN1 (centres undefined)
inactive
O=C(O)C1CCCNN1 (centres undefined)
< 50%
